B1: Myc-tagged ZDHHC17 ANK (1-7) [human] / Flag-MAP2K4 [human] (parent complex)
chain 1: THIDDYSTWDIVKATQYGIYERCRELVEAGYDVRQPDKENVTLLHWAAINNRIDLVKYYISKGAIVDQLGGDLNSTPLHWATRQGHLSMVVQLMKYGADPSLIDGEGCSCIHLAAQFGHTSIVAYLIAKGQDVDMMDQNGMTPLMWAAYRTHSVDPTRLLLTFNVSVNLGDKYHKNTALHWAVLAGNTTVISLLLEAGANVDAQNIKGESALDLAKQRKNVWMINHLQEARQAKGYDN
chain 2: MAAPSPSGGGGSGGGSGSGTPGPVGSPAPGHPAVSSMQGKRKALKLNFANPPFKSTARFTLNPNPTGVQNPHIERLRTHSIESSGKLKISPEQHWDFTAEDLKDLGEIGRGAYGSVNKMVHKPSGQIMAVKRIRSTVDEKEQKQLLMDLDVVMRSSDCPYIVQFYGALFREGDCWICMELMSTSFDKFYKYVYSVLDDVIPEEILGKITLATVKALNHLKENLKIIHRDIKPSNILLDRSGNIKLCDFGISGQLVDSIAKTRDAGCRPYMAPERIDPSASRQGYDVRSDVWSLGITLYELATGRFPYPKWNSVFDQLTQVVKGDPPQLSNSEEREFSPSFINFVNLCLTKDESKRPKYKELLKHPFILMYEERAVEVACYVCKILDQMPATPSSPMYVD

Variants of: B1
assay_info: co-immunoprecipitation, quantified immunoblot; HEK293 cell lysates; parent: 1; read off a plot
metric_name: ratio to parent

mutant_code: chain 1 Y17G
result: ~0.33
--
mutant_code: chain 1 D4G
result: ~0.43
--
mutant_code: chain 1 D5G
result: ~0.75
--
mutant_code: chain 1 R83G, chain 1 R150G
result: ~0.75
--
mutant_code: chain 1 Y6G
result: ~0.35
--
mutant_code: chain 1 R52G
result: ~0.35
--
mutant_code: chain 1 Q84G
result: ~0.85
--
mutant_code: chain 1 W80G, chain 1 F117G
result: ~0.42

meta.source: paper PMC6956818
